For each entry below, report its apparent KD of MS2 coat protein value.
System: MS2 coat protein
Experiment: apparent KD of MS2 coat protein; designed switch direction (-1 OFF switch, 1 ON switch): -1; higher = weaker reporter binding
Settings: input ligand: none
All answers are understood in nM, so give the number only.

Record AUAUUUAAUGAGGAUAUCGUUGUAGGUAUAUAGCGAGAAGGCAUUACAUGAGGAUCACCCAUGUAGUGUGGGUU [JR_Ex6_Sub021] (Eterna round: R97, puzzle: Exclusion 6) , field apparent KD of MS2 coat protein: 23.7

Please fill in: apparent KD of MS2 coat protein reported for ACAUGAGGAUCACCCAUGUCCGGCUGGUCCGUCUCGGCUGUCGAGGAUAUGGCUCGGUGUCCGCGCUAGAAGGCGGGAGCCGGA [Aenatbe mod 76] (Eterna round: R96, puzzle: Exclusion NG 3) = 45.4

Field apparent KD of MS2 coat protein (entry GCGCGAAGGUAGGAUAUCCGGCGAUCUUCCGUCGGAGAAGGACCCACAUGAGGAUCACCCAUGUGGUGAUCCUG [eternacac ex6r4 sub13] (Eterna round: R97, puzzle: Exclusion 6) ) reads 23.9

* * *

Test system: K4 kissing-loop RNA reporter;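 further: bound reporter read as fluorescence of individual clusters on recovered sequencing chips by microscopy, with normalized cluster intensities fitted with a binding model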
Experiment: apparent KD of K4 kissing-loop reporter; higher = weaker reporter binding
Conditions: Eterna round: R107; input ligand: tryptophan 2.4 mM
Labels assigned by apparent KD of K4 kissing-loop reporter range: c1: < 200 nM; c2: ≥ 200 nM and < 500 nM; c3: ≥ 500 nM

Sort into band: UUUGGAGAGGGAAGGAGCGUGAAAGAGAAAGAAUAUAGUGAUGUUAUAUAGAAGAAAGAAUCACAGGUAGGUCGCCCGGAGGAGG [SSArgB.D]
c3

Note: place this sequence into its band. Item: CGGAUGUAGUGAUGUUAUAUUAGAUGUAGACGAGGACCGGUACGGCCGCCACUCGUGACGGCUGCUAGCGCGUUGCGAGGUUUGC [ExTryptoA.Cn]
c3

Hello team, could you let me know which band the following sequence falls into: GUAUUUCCCUCGGAUACCAGUCAUCAUGAGUAUAGUGAUGUUGUACGUCCGGAUGAUUUUGACCCUUGGCAGCCGUCUCCUUGAA [theeternabot_sameState_KL_Theo_B_49]
c3

Kindly state the category for this sequence: UUUUUGGUUUAGAGUGAUGUUCCUUGUAUUCGAGGACCGGUACGGCCGCCACUCGAAUAGAAAAGAAAAGAAAAGAGUGAUGUUU [BDazzled - #3 SS Tryptophan A]
c2

In plain terms, what class is GCGCGUCAUGUCAGCGGUGACACUGUCGAUACCAGUGCCGUAAGGCGCCCUUGGCAGCGACGUGCUGGAGUGAUGUUCCAGCGUU [#2 Exclusion - Theophylline A Attempt #31 (HarryS)] ?
c1

Where would GAACAUAGUAAAGGAUAUUCCUGCCUCGCGCGAUUGAUUAGUGAUGUUGACGAUAUCGCUUUGAGGGAAGAAGGUUAACAAGUCA [theeternabot_exclusion_KL_FMN_B_4] land among the classes by reported apparent KD of K4 kissing-loop reporter?
c3

Place this sequence in its band: GCCGUACGCAUGGAUACCAGAGAUGUUAAUCUCGAUGCCAGUGAUGUUGGCUUUAGCUAUCUCCCUUGGCAGCCAUGCGUACGGC
c3

Which apparent KD of K4 kissing-loop reporter band matches GCUAUGGUAGGAAGGAGCGCUGCCUUGUUUUUACGAGUGAUGUUCGGAAGCAGGGUGUUAAAGCAGGUAGGUCGCCUACUAUAGC [Arginine B K4 23] ?
c1

Determine which band this sequence sits in: UAACUUGCAGUGAUGUUGCAAGAACUGGAUACCAGCAUGGAAACAUGCCCUUGGCAGCCAGAAGGUAUCCUCUUGCAUAGAUACU [Design3]
c1

Which category does the recorded apparent KD of K4 kissing-loop reporter put CUAUAAGUGCCGAGUGAUGUUCGGCCAAUACGAGGACCGGUACGGCCGCCACUCGGUCAGUCGGUGCCCACCGGGCAUGGCUGAC [Ortima] in?
c1

Categorize the following entry: UGAUCAACAUCUGAUACCAGUCGCUCGAGUAAUCAACCGUGGCUAGUGAUGUUGGCUUUUGACCCUUGGCAGCAGAAUCGUGUCA [theeternabot_sameState_KL_Theo_B_20]
c1

Category of GUCCCAGUGAUGUUGGUAGGCGAGCGGGAUACCAGCGAAGACUCACGCCCUUGGCAGCCCACAUAUCCCGCGUAGGGAUUAGCUC [Same State - Theophylline A (Freestyle 21)] , please.
c2
